Tested on: bloodstream-form trypanosome T. brucei brucei 427 strain
test.protocol: Trypanosoma brucei brucei high-throughput in vitro drug sensitivity assay (resazurin)
Assay type: cell-based
condition.parameters: T. b. brucei vs L929
Some compounds, each annotated with its measured Selectivity Index (L929 IC50 / T. b. brucei IC50).

Solved entries (count: 5):
- compound: "CC1OB(O)c2cc(NC(=O)c3ccc(Cl)cc3)ccc21 (stereo not drawn)"
  tested.on: "bloodstream-form trypanosome T. brucei brucei 427 strain"
  experimental.result: ">208"
- compound: "O=C(Nc1ccc2c(c1)B(O)OC21CCC1)c1ccc(F)cc1C(F)(F)F"
  tested.on: "bloodstream-form trypanosome T. brucei brucei 427 strain"
  experimental.result: ">30"
- compound: "COc1cccc(C(=O)Nc2ccc3c(c2)B(O)OC3C)c1 (stereo not drawn)"
  tested.on: "bloodstream-form trypanosome T. brucei brucei 427 strain"
  experimental.result: ">217"
- compound: "CC1(C)OB(O)c2cc(NC(=O)c3ccccc3Br)ccc21"
  tested.on: "bloodstream-form trypanosome T. brucei brucei 427 strain"
  experimental.result: ">44"
- compound: "O=C(Nc1ccc2c(c1)B(O)OC2C1CCCC1)c1ccccc1C(F)(F)F (stereo not drawn)"
  tested.on: "bloodstream-form trypanosome T. brucei brucei 427 strain"
  experimental.result: ">15"

Kindly review the next compound as well.
Measured Selectivity Index (L929 IC50 / T. b. brucei IC50) of CC1OB(O)c2cc(NC(=O)c3ccccc3C(F)(F)F)ccc21 (stereo not drawn) : 7

* * *

test.protocol: Pharmacokinetic studies in mice (plasma, brain)
Format: in vivo
condition.parameters: male, CD-1, mouse, 8 mg/kg; plasma, oral, mice, normalized to 25 mg/kg (Table 3a)
Some compounds, each annotated with its measured Cmax.
Reply with just the number (in ng/mL).

- input.smiles: "CC1(C)OB(O)c2cc(NC(=O)c3ccc(F)cc3Cl)ccc21"
  Cmax / ng/mL: 7670

Kindly review the next compound as well.
Measured Cmax of O=C(Nc1ccc2c(c1)B(O)OC2)c1ccc(F)cc1Cl : 3590

* * *

Some compounds, each annotated with its measured IC50 at 72 h.
test.protocol: L929 cytotoxicity evaluation (resazurin)
Format: cell-based
condition.parameters: mouse, L929 mouse fibroblast cells; 72 hrs incubation; read-out: Cytotox L-929 IC50

Solved entries (count: 5):
- compound: "CC1(C)OB(O)c2cc(NC(=O)c3cccc(F)c3)ccc21"
  IC50 at 72 h: "> 10 µg/mL"
- compound: "O=C(Nc1ccc2c(c1)B(O)OC2C1CCCC1)c1ccc(F)cc1 (stereo not shown)"
  IC50 at 72 h: "> 10 µg/mL"
- compound: "CC1(C)OB(O)c2cc(NC(=O)c3ccc(F)cc3Cl)ccc21"
  IC50 at 72 h: "> 10 µg/mL"
- compound: "CC1(C)OB(O)c2cc(NC(=O)c3ccc(Cl)c(Cl)c3)ccc21"
  IC50 at 72 h: "> 10 µg/mL"
- compound: "CC(C)CC1OB(O)c2cc(NC(=O)c3ccccc3Cl)ccc21 (stereo not shown)"
  IC50 at 72 h: "> 10 µg/mL"

Measured IC50 at 72 h of CC1(C)OB(O)c2cc(NC(=O)c3ccc([N+](=O)[O-])cc3)ccc21 : > 10 µg/mL

Measured IC50 at 72 h of CC1(C)OB(O)c2cc(NC(=O)c3ccc(SC(F)(F)F)cc3)ccc21 : > 10 µg/mL

Measured IC50 at 72 h of CC1OB(O)c2cc(NC(=O)c3ccc(F)cc3F)ccc21 (stereo not shown) : > 10 µg/mL

Measured IC50 at 72 h of CC1(C)OB(O)c2cc(NC(=O)c3cccnc3)ccc21 : > 10 µg/mL

Measured IC50 at 72 h of CC1(C)OB(O)c2cc(NC(=O)c3ccc(Cl)cc3Cl)ccc21 : > 10 µg/mL

* * *

test.protocol: Pharmacokinetic studies in mice (plasma, brain)
Type: in vivo
condition.parameters: male, CD-1, mouse, 8 mg/kg; plasma, oral, mice (Table 3a); read-out: t½ (converted)
readout.name: half-life (h)
Reply with just the number (in h).

- molecule: "O=C(Nc1ccc2c(c1)B(O)OC2)c1ccc(F)cc1Cl [E14]"
  unit.string: "h"
  half-life: 2.97

Kindly review the next molecule as well.
Measured half-life of CC1(C)OB(O)c2cc(NC(=O)c3ccc(F)cc3Cl)ccc21 [compound 69] : 3.7

* * *

Tested on: bloodstream-form trypanosome T. brucei brucei 427 strain
test.protocol: Trypanosoma brucei brucei high-throughput in vitro drug sensitivity assay (resazurin)
Type: cell-based
condition.parameters: Trypanosoma brucei; 72 hrs incubation; read-out: T. b. brucei IC50
readout.name: pIC50
Expect pIC50 as a plain number equal to -log10 of the molar concentration.

Solved entries (count: 4):
- molecule: "CC1OB(O)c2cc(NC(=O)c3ccc(F)cc3Cl)ccc21 (centres unmarked) [compound 13]"
  pIC50: 6.87
- molecule: "O=C(Nc1ccc2c(c1)B(O)OC2C1CCCC1)c1ccccc1C(F)(F)F (centres unmarked) [compound 17]"
  pIC50: 5.77
- molecule: "Cc1ccc(C(=O)Nc2ccc3c(c2)B(O)OC3C)cc1 (centres unmarked) [compound 7]"
  pIC50: 6.84
- molecule: "CC(C)CC1OB(O)c2cc(NC(=O)c3ccccc3C(F)(F)F)ccc21 (centres unmarked) [compound 22]"
  pIC50: 5.64

Kindly review the next molecule as well.
Measured pIC50 of CC1OB(O)c2cc(NC(=O)c3cccc(Cl)c3)ccc21 (centres unmarked) [compound 11] : 6.92

* * *

Some molecules, each annotated with its measured IC50 at 72 h.
test.protocol: L929 cytotoxicity evaluation (resazurin)
Assay type: cell-based
condition.parameters: mouse, L929 mouse fibroblast cells; 72 hrs incubation; read-out: Cytotox L-929 IC50

- molecule: "CC1(C)OB(O)c2cc(NC(=O)c3cc([N+](=O)[O-])ccc3Cl)ccc21"
  experimental.result: "2.68 µg/mL"
- molecule: "CC1(C)OB(O)c2cc(NC(=O)c3c(C(F)(F)F)ccc(Cl)c3F)ccc21"
  experimental.result: "> 10 µg/mL"
- molecule: "C=Cc1ccc(C(=O)Nc2ccc3c(c2)B(O)OC3(C)C)c(Cl)c1"
  experimental.result: "> 10 µg/mL"
- molecule: "Cc1ccc(C(=O)Nc2ccc3c(c2)B(O)OC3(C)C)c(Cl)n1"
  experimental.result: "> 10 µg/mL"

Measured IC50 at 72 h of CC1(C)OB(O)c2cc(NC(=O)c3ccc(N4CCOCC4)cc3)ccc21 : > 10 µg/mL

Measured IC50 at 72 h of CC1(C)OB(O)c2cc(NC(=O)c3cc(Cl)ccc3F)ccc21 : > 10 µg/mL

Measured IC50 at 72 h of CC1(C)OB(O)c2cc(NC(=O)c3c(Cl)cccc3Cl)ccc21 : > 10 µg/mL

Measured IC50 at 72 h of CC1(C)OB(O)c2cc(NC(=O)c3cccc4ccccc34)ccc21 : > 10 µg/mL

Measured IC50 at 72 h of CC1(C)OB(O)c2cc(NC(=O)c3ccoc3)ccc21 : > 10 µg/mL

* * *

test.protocol: Pharmacokinetic studies in mice (plasma, brain)
Format: in vivo
condition.parameters: male, CD-1, mouse; brain, oral, mice, normalized to 25 mg/kg (nominal 25 mg/kg)
readout.name: Cmax (ng/mL)
Reply with just the number (in ng/mL).

- input.smiles: "O=C(Nc1ccc2c(c1)B(O)OC2)c1ccc(F)cc1C(F)(F)F"
  unit.string: "ng/mL"
  Cmax: 6100

Kindly review the next molecule as well.
Measured Cmax of CC1(C)OB(O)c2cc(NC(=O)c3ccc(F)cc3C(F)(F)F)ccc21 : 7700

* * *

test.protocol: L929 cytotoxicity evaluation (resazurin)
Format: cell-based
condition.parameters: mouse; 72 hrs incubation; read-out: Cytotox L-929 IC50
Experimental: For evaluation of compound effects on mammalian cells, L929 mouse fibroblast cells were used. Cells were maintained as adherent cultures in T-25 vented cap flasks in a humidified incubator at 37° C. in the presence of 5% CO2. […] Sub-confluent L929 cells were trypsinized, resuspended in fresh media and 10 uL was counted using hemocytometer to determine cell concentration. […] Assay plates were read using an EnVision plate reader at an excitation wavelength of 544 nm and emission of 590 nm. […]
readout.name: IC50 at 72 h

Measured IC50 at 72 h of CC1(C)OB(O)c2cc(NC(=O)C(F)(F)C(F)(F)C(F)(F)F)ccc21 [compound 131] : > 10 µg/mL

* * *

Some compounds, each annotated with its measured solubility at 90 min.
test.protocol: Kinetic solubility by nephelometric (light scattering) method
Type: physicochemical
condition.parameters: phosphate buffered saline, aqueous buffer, kinetic from dmso stock, PBS pH 7.4
Reply with just the number (in µM).

Solved entries (count: 6):
- compound: "CC(C)c1ccc(C(=O)Nc2ccc3c(c2)B(O)OC3(C)C)c(Cl)c1 [compound 101]"
  solubility at 90 min / µM: 25
- compound: "O=C(Nc1ccc2c(c1)B(O)OC2C1CCCC1)c1ccccc1C(F)(F)F (centres unmarked) [compound 17]"
  solubility at 90 min / µM: 25
- compound: "O=C(Nc1ccc2c(c1)B(O)OC2C1CCCC1)c1ccc(F)cc1C(F)(F)F (centres unmarked) [compound 19]"
  solubility at 90 min / µM: 100
- compound: "O=C(Nc1ccc2c(c1)B(O)OC21CCC1)c1ccc(F)cc1C(F)(F)F [compound 134]"
  solubility at 90 min / µM: 100
- compound: "CC1OB(O)c2cc(NC(=O)c3ccccc3Br)ccc21 (centres unmarked) [compound 14]"
  solubility at 90 min / µM: 100
- compound: "CC(C)CC1OB(O)c2cc(NC(=O)c3ccc(F)cc3C(F)(F)F)ccc21 (centres unmarked) [compound 23]"
  solubility at 90 min / µM: 25

Measured solubility at 90 min of CC1OB(O)c2cc(NC(=O)c3ccccc3F)ccc21 (centres unmarked) [compound 8] : 50

Measured solubility at 90 min of Cc1ccc(F)c(C(=O)Nc2ccc3c(c2)B(O)OC3(C)C)c1Cl [compound 107] : 4.3

Measured solubility at 90 min of CC1OB(O)c2cc(NC(=O)c3ccc(F)cc3F)ccc21 (centres unmarked) [compound 12] : 100

Measured solubility at 90 min of CC1(C)OB(O)c2cc(NC(=O)c3ccc(Cl)cc3Cl)ccc21 [compound 65] : 50
